System: U373
Assay: MTT-based cytotoxicity assay, U373
Format: cell-based
Settings: Homo sapiens, U373 MG, 72 h
List of IC50 values.
ENDPOINT: IC50 (µM)

INSERT INTO results (compound, endpoint, value_observed) VALUES
  ('C=C1C2CCC(C)(C3COc4c(C)c(OC)c5c(c4C3O)C(O)OC5=O)C1CCC2(C)C (centres unmarked)', 'IC50', 18),
  ('O=NN(CCCl)C(=O)NCCCl [BCNU, carmustine, reference compound]', 'IC50', 250);

###

Assay: Maximum Tolerated Dose after intraperitoneal administration
Conditions: mouse, in vivo, ip; female C57BL/6 mice, single intraperitoneal dose, seven days
ENDPOINT: MTD at 168 h

INSERT INTO results (molecule, endpoint, value_observed) VALUES
  ('C=C1C2CCC(C)(C3COc4c(C)c(OC)c5c(c4C3O)C(O)OC5=O)C1CCC2(C)C (stereo not shown)', 'MTD at 168 h', '~140 mg/kg');
